Hi! I'm sharing some pIC50 results obtained with wild type (NL4-3) HIV-1 protease (Human immunodeficiency virus type 1 group M subtype B).
pIC50: −log10 of the molar value. Non-standard residues stand in square brackets, D forms with d. Residues, ends and D or L forms follow the SMILES beside them. Nle = CCCC[C@H](N)C(=O)O

What value of pIC50 on wild type (NL4-3) HIV-1 protease (Human immunodeficiency virus type 1 group M subtype B) does CCCC[C@H](NC(=O)[C@H](C)NC(=O)[C@H](CCC(=O)O)NC(=O)[C@@H](N)Cc1ccccc1)C(=O)O [Compound 7a, Phe-Glu-Ala-Nle] (H-FEA[Nle]-OH) have?
< 6.00

What value of pIC50 on wild type (NL4-3) HIV-1 protease (Human immunodeficiency virus type 1 group M subtype B) does CC(C)C[C@H](NC(=O)[C@@H](NC(=O)[C@@H](N)CCCNC(=N)N)C(C)C)C(=O)O [Compound 7b, Arg-Val-Leu] (H-Arg-Val-Leu-OH) have?
< 6.00
